- Target Or Test System: T1, human TROP2 (antigen of panning and clone screening) (human, UniProt P09758 27-274, limits assumed)
- T1 construct: also called human TROP2-His protein; TROP2-expressing CHOK1 cells
- T1 sequence (looked up): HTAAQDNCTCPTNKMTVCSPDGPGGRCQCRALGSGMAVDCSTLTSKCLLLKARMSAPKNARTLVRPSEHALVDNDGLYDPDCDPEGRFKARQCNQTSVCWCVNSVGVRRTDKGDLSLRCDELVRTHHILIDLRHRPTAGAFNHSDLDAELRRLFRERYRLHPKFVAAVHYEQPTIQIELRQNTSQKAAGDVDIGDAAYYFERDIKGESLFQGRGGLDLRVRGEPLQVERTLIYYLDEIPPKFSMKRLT
- Measurement Notes: positive phage clones from panning on human TROP2-His protein or on TROP2-expressing CHOK1 cells, ELISA
Endpoint Label: binding result

| Binder | Endpoint Label | Recorded Measurement |
| --- | --- | --- |
| anti-TROP2 #TP4 VHH (VHH) VHH: QLQLVESGGGLVQPGGSLRLSCAASGFTLDDYAMRWFRQAPGKAREGVSCISRSDGTTYYADSVKGRFTISRNNAENTVYLQMNSLKPEDTAVYYCAADSLGCNGYSDWGVDYWAKGTLVTVSS | binding result | binds |
| anti-TROP2 #TP11 VHH (VHH) VHH: QVQLVESGGGLVQPGGSLRVSCAASGFRLDYYAIGWFRQAPGKEREGVSSINYSSGSTVYADSVKGRFTISRGNAKNTVYLQMNSLKPEDTAVYYCAVGTVVTSLAPYEYDYWGQGTQVTVSS | binding result | binds |
| anti-TROP2 #TP5 VHH (VHH) VHH: QLQLVESGGGLVQPGGSLKLSCAASGFTLDYWTIGWFRQAPGKEREGVSCISSSDGSTYYADSVKGRFTISRDNAKRTVNLQMNSLKPEDTAVYYCAAGSLGYCSRSTPQYEYDFWGQGTQVTVSS | binding result | binds |
